Give measured Kd for each item. Keep answers brief.
Biological target: T1, His-tagged mouse CD38 (ACRO Biosystems CD8-M5223) (mouse, UniProt P56528 45-304)
T1 construct: bought protein; used for ELISA coating and as SPR analyte; also called Murine; not shown: His tag
T1 sequence (looked up): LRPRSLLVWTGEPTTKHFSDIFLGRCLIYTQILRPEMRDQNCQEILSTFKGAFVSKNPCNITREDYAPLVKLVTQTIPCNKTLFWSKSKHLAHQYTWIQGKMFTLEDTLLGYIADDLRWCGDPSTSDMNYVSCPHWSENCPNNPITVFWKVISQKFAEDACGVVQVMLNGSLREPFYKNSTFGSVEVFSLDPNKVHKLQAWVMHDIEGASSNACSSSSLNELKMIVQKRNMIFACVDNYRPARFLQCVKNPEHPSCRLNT
Experiment: SPR (second run), His-tagged CD38
Respond numerically; units are nM and should not be typed.

Q: Bench note: what Kd did 40596p1.F6 (scFv, V domains shown) VH: EVQLLESGGGLVQPGGSLRLSCAASGFDFSKNAMSWVRQAPGKGLEYVAGSGWSGSFIFYADSVKGRFTVSRDNSENTLYLQMSSLRAEDTAVYYCAKNPGFGEMDVWGQGTTVTVSS VL: EIVLTQSPGSLFLSPGERATLTCRASQTIGSNLAWYQQKFGQAPRLLIYGASTRAADIPDRFSGSGSGTEFTLTISSLQSEDFAVYYCQQYNSWPPLTFGGGTKVEIK show?
Result: 27.2

Q: Bench note: what Kd did 40596p1.D2 (scFv, V domains shown) VH: EVQLLESGGGLVQPGGSLRLSCAASGFDFSKNAMSWVRQAPGKGLEYVAGSGWSGSFIFYADSVKGRSTVSRDNSENTLYLQMSSLRAEDTAVYYCAKNPGFGEMDVWGQGTTVTVSS VL: ELVLTQSPGSLFLSPGERATLTCRASQTIGSNLAWYQQKFGQAPRLLIYGASTRAADIPDRFSGSGSGTEFTLTISSLQSEDFAVYYCQQYNSWPPLTFGGGTKVEIK show?
Result: 45.2
